- System: RXRa homodimer (NR concentration 180 nM)
- assay-remarks: PBM binding z-score (relative to random genomic background probes); higher = stronger binding; sequences stand for … in GC…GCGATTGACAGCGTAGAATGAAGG
measured-parameter: PBM binding z-score
Simply state the number, no unit and no words.

Tell me reported PBM binding z-score for `TAGTCTAGGTCATGGGCCAGTATACCACGCGAAC` , tested with RXRa homodimer (NR concentration 180 nM). 3.44

Next sequence up: `AATACAGGGTCCCTAGGCCAGAGTAGGTACGAAT` 0.211

Try this sequence next: `AAATGTAGGTTATCGGGTCATTCAGTTTGCGCAT` 3.42

Request: `TTATCAAGGTGAGCTGAGGTCGTTGATCCAACTC` 1.59

Would you mind doing `ATATGTAGGTTATAGGGTCATTCAGTTTGCGCAT` as well? 4.98

Now the sequence `CGAACTAGGTCATCCATGACAGTGAATACATTGA` 2.97

Quick one: `TCATATAGGTAATACAGGTGAAAGGCGGCATCTA` 1.32

Again, but for `TAGCCTAGGTCATGCGGGCCAGTATCGTGTCGGC` 3.1

Follow-up item: `TCTTGTAGATAAGCAGGTTAAGAAAGCTGGCCAA` 0.245

Check `AGAACGAGGGCAATAAGTTGATAGCACGGGTGGC` too. 0.767

And for `TCATATAGGCAAACAGGTGAAAGTCCGTAAGTTA` ? 0.527

How about this sequence: `CGTCCAACGTCAGAGAGGTCAGTGAATGCCGAGT` 2.32

Moving on to `ATCGCAAGGTCGACGAGGTGAGTATACACCGTTT` 2.26

Next entry: `CATCGGAGGACAGAAGGTCAGAGCTGTCCGCTTT` 1.8

Can you check `ACTATTAGTTGACTTAGGACAACCGATACGACGC` next? 0.557

Cool, now `AGAAAGAGGTTATACGTAGATCAGGGAAGAAAGT` 2.93

###

Give PBM binding z-score for every item shown.
- System: VDR homodimer (NR concentration 270 nM)
- assay-remarks: PBM binding z-score (relative to random genomic background probes); higher = stronger binding; sequences stand for … in GC…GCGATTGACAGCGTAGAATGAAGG
When you answer, write just the number.

Please report the recorded PBM binding z-score for `GCTAGTTGGTCAGTAAAAGGTCCCACACCGGTCG` . -0.387

Follow-up item: `TGTCAAAGTTCAAAGGAAACGTAAGTATCCACAC` 3.4

Further, for `AAATGTAGGTTAGCTGGGGTCATTCAGACTAGGC` ? 5.33

// query: `CTACCAAGGTGAACAAGGTCTTTGATTACTATTC` 0.414

What about `TCTTGTAGATCAACAGGAGATTAAGAAAGATCGA` ? -0.417

Could you do the same for `ACTATTAGTTGACTTAGGGCATCCGATACGACGC` , please? 0.435

What about `AGAATGAGGTTATACGTAGATCAGGGATGAAAGT` ? 0.865

// repeat for `TTACCAAGGTGAGCTGAGGTCGTGGATCCAACTC` and report 0.927

What about `GCGACTGGGGCAAAGCCGGTTACCATAAGGTTGG` ? -0.688

Also need `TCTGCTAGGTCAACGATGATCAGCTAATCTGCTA` , thanks. -0.153

Then what about the sequence `CCGAGTGGGTTATGGGGCATTCAGGCAACGGTGA` ? 0.328

Next sequence up: `CCGACTGGGGCATAAGGATACCATAAGCCAGCCC` -0.401

Queued: `CCTCGAAGGACAACAGGAGGTCAGAGCTGCCAGA` 0.641

Another sequence to check: `TCTCGGAGGACAGGAAAGGTCAGAGCTCGACATC` 0.606

Same question, `ACTAGCAGGCCTAGTTTGGGTCACTCAAACAAAG` this time 0.0469

Would you mind doing `TGAATGAGGTTAAAGAACAGGGAACGTGGCGTCG` as well? 0.66

Entry `CCTGCTAGGTCAAGGTCAGCTAATCTACAGTATG` please 1.23

Same question for `CCTACTGGGCCAAAGGTCATTGGTTCCAATGCTC` please. 2.85

Quick one: `TTACCAAGGTGAGCTGAGGTCGTTGAACCAACTC` 2.01

Try `TCGAGTAGGTTACCGATGGGGCATTCAGCTTTCT` next. -0.757

###

Record form. Attribute: PBM binding z-score. Fill in for each entry.
- Test system: PPARg:RXRa (NR concentration 180 nM, RXRa partner concentration 90 nM)
- assay-remarks: PBM binding z-score (relative to random genomic background probes); higher = stronger binding; sequences stand for … in GC…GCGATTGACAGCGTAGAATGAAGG
The answer should be a number; do not append a unit.

Value lookup for PBM binding z-score; key = `AATACAGGGTCATCGTAGACCAGAGTACGCACAG` 6.79

Also check `TCACGGAGGACACGAAAGGTCAGAGCTCGACATC` 1.48

Param item: `TATTGTAGATCAACAGGAGGTTAAGAAAGATCGA` 0.641

Continue with `CCTACTGGGCCAAAAAGGTCATTGAGGCCGATAA` 3.3

###

- System: LXRa homodimer (NR concentration 270 nM)
- assay-remarks: PBM binding z-score (relative to random genomic background probes); higher = stronger binding; sequences stand for … in GC…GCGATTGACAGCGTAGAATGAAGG
Please respond with reported PBM binding z-score for every item in the list.
Respond numerically, and do not add a unit to the figure.

Value wanted: PBM binding z-score (LXRa homodimer (NR concentration 270 nM)) of entry `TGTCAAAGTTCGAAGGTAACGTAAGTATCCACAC` 0.166

Next entry: `CAAACTTGGTCACCGGAAGGTCAAAGTCCGCATG` 3.5

Okay, and `CCTACTGGGCCAAAGGTCATTTATTCCAATGCTC` ? 5.54

###

I'd appreciate it if you could supply PBM binding z-score values for the items below.
- Tested on: PPARg:RXRa (NR concentration 180 nM, RXRa partner concentration 90 nM)
- assay-remarks: PBM binding z-score (relative to random genomic background probes); higher = stronger binding; sequences stand for … in GC…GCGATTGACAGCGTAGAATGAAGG

Consider the sequence `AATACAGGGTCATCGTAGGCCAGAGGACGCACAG` and give its measured PBM binding z-score. 6.68

`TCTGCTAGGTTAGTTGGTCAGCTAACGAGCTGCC` , same question. -0.648

How about `TGTCAAAGTTTAAAGGTAACGTAAGTATCCACAC` ? 4.23

Entry `TCTAGTAGATCAGCAGGTTAAGAAAGCTGGCCAA` please -0.257

Would you mind doing `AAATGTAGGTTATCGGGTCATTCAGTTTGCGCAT` as well? 7.59

# iterate: `ATATGTAGGTTAATGGTCATTCAGGTTGGTTCGC` 7.74

Then this sequence: `ACTAGTTGGTCAGCTGAGATCACACACAATTCGG` 0.977

// repeat for `AGAATGAGGTTATACGTAGATCAGTGAAGAAAGT` and report 1.92

Item: `TTACCAAGATGAGCTGAGGTCGTTGATCCAACTC` 0.0458

Note, next up: `ATCGAAAGGTCGACGACGTGAGTATACACCGTTT` 2.29

Follow-up entry: `TCATGTAGGTAAAAGGTGAAAGTCGGTGTGGTAA` 9.58

Then what about the sequence `TCTGCTAGGTCAGTTGGTCAGTTAACGAGCTGCC` ? 0.334

Another sequence to look at: `GCGACTGGGGCATCAGCAGGTTACCAAAACTTAA` 0.564

###

Kindly state PBM binding z-score for each of the entries shown.
- System: PPARg:RXRa (NR concentration 180 nM, RXRa partner concentration 90 nM)
- assay-remarks: PBM binding z-score (relative to random genomic background probes); higher = stronger binding; sequences stand for … in GC…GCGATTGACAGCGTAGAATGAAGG
Please reply with the number alone, leaving off any unit.

Report PBM binding z-score for `CCTCGGAGGACAGTAGGTCAGAGCTGTCCGCTTT` please. 0.253

Entry to check: `GTACCATGGTGAATAGGTCGTTGATGAGTAGGCG` 0.623

Again, but for `CCTACTGGGACAAGGTCATTGATCAGTCAAAGCA` 4.54

Can you handle `ACTCGGAGGACAAAGGTCAAAGCTACGCCAGTGA` next? 8.63

Similarly, `TCTGCTAGGTCAGCTGGTCAGCTAACGAGCTGCC` ? 0.828

Then what about the sequence `TCCGACAGGTGAAGGTAACTCAGGTACGCAGTCG` ? 0.493

###

Provide the reported PBM binding z-score of each item.
- System: LXRb:RXRa (NR concentration 270 nM, RXRa partner concentration 90 nM)
- assay-remarks: PBM binding z-score (relative to random genomic background probes); higher = stronger binding; sequences stand for … in GC…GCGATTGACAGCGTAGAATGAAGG
Lab note: record just the number, no unit beside it.

Item under review: `CCTACTGGGCCAAGGTTATTGATCAGTCAAAGCA` . Reported PBM binding z-score? 0.269

Further, for `TCTTGTAGATGAAAGGTTAAGAAAGCCGAAGCCT` ? 1.67

Next sequence: `GCTGCTAGGCCAACTGATGGTCAGCTAAAGCTCG` -1.3

How about this sequence: `CGAACTAGGTCATTGACAAGACAGTGAATAGTAA` 2.04

Now give it for `GCTTACGGGTCTAAGGTTATAGCATGAATAGAAT` too. 1.2

What would you report for `AGTCGAAGTTCAGGACGAGGTAACGTAAAGCACG` ? 0.485

Now consider `CCGACTGGGACATAAGGTTACCATAAGCCAGCCC` and answer again. 0.621

`ATCTCTAGGTAAGAATCAGTTCAGTGAAGAACGC` ? 0.521

Here is the next sequence: `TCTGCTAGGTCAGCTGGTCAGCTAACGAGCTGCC` 0.287

Also, `ATCTCTAGGTCAAGATAGTTCAGTGAATGCAAAT` please. 3.62

Would you kindly repeat that for `TCCAGTAGGTTAGGGGCATTCAGAATGGCGTCGA` ? 1.19

Next sequence up: `CAAATTAGGTCAAGGTCAAAGTCGGTTTGTGCCA` 4.86

Same read-out for `TCGAGTAGGTTAGGGGCATACAGAATGGCGTCGA` ? 0.825

Here is the next sequence: `GCGACTGGAGCAAAGCAGGTTACCATAAGGTTGG` -0.498

Repeat with `GGAACGAGGGCATTCGAGTTGATAGCGTGGCGAT` -0.00424

Now consider `CCTTACGGGGCAAGGTTATAGCACGGGTGGTACG` . 0.153

Then `CCTACTAGGCCATCAGGTCATTGATATCAACGTT` ? 2.16

Please answer likewise for `TCAGACAGGTGAAGGTACCTCAGGTACGCAGTCG` 0.0572

Would you kindly repeat that for `TGAATCAGGTTATAAGATCAGGGAACGTTGCAAA` ? 0.0988

Data credit: the supplement of paper PMC6555819
